This collection of values is drawn from PubChem BioAssay (NCI).

system: SNB-19 CNS; experiment: NCI-60 one-dose screen, 48 h (100 = growth as untreated, 0 = no growth, -100 = all killed); conditions: 10 µM unless noted
Compounds without any hit were thinned out: in the full panel of roughly 83,000, 20% have a hit.
Label Criterion met for high-side growth (at or above 40%) and Criterion not met for low-side growth (below it).

Query block: Is it the case that `CCC(C)(C)C(=O)O[C@H]1C[C@@H](C)C=C2C=C[C@H](C)[C@H](CC[C@@H]3CC=CC(=O)O3)[C@H]21` has growth reaching or exceeding 40%?
Result block: Criterion met

Query block: Is it the case that `COc1cc(-c2c3c(cn2S(=O)(=O)c2ccccc2)-c2nc(N)sc2CC3)cc(OC)c1OC` has growth reaching or exceeding 40%?
Result block: Criterion not met

Query block: Is it the case that `O=c1oc2ccc(F)cc2c(=O)n1-c1ccc(Br)cc1F` has growth reaching or exceeding 40%?
Result block: Criterion not met
